- assay.details: OD615 S. cerevisiae growth inhibition, permissive medium, pilot counter-assay, permissive growth control for S. cerevisiae lifespan shortening project (AID 705)
- test.settings: OD615, 24 h, at 10 µM, stronger effect = higher value
Label 1.0 when growth inhibition is at or above -10%; anything below gets 0.0.

Data request: Form field: growth inhibition at least -10%? Entry: O=C(c1ccc(NC2=NC3CS(=O)(=O)CC3S2)cc1)N1CCc2ccccc2C1 (stereo not given)
Data returned: 1.0

Data request: Form field: growth inhibition at least -10%? Entry: CCOC(=O)c1cn(-c2ccccc2)nc1-c1cccnc1
Data returned: 0.0

Data request: Form field: growth inhibition at least -10%? Entry: OC1CC(c2ccco2)NC2(CCCCC2)C1 (stereo not given)
Data returned: 1.0

Data request: Form field: growth inhibition at least -10%? Entry: CN1c2ccccc2-c2nc3ccccc3n2C1c1ccccn1 (stereo not given)
Data returned: 1.0

Data request: Form field: growth inhibition at least -10%? Entry: COCCN(CCOC)Cc1c(C)[nH]c2c(C)c(C)ccc2c1=O
Data returned: 0.0

Data request: Form field: growth inhibition at least -10%? Entry: CCC(=O)c1cc2c(cc1NC(=O)c1cccs1)OCCO2
Data returned: 1.0

Data request: Form field: growth inhibition at least -10%? Entry: CC(C)Cc1cc(C(=O)Nc2cc(Cl)ccc2Cl)no1
Data returned: 0.0

Data request: Form field: growth inhibition at least -10%? Entry: CN1CCN(c2nc3c(c(=O)n(C)c(=O)n3C)n2CCSc2nc3ccccc3s2)CC1
Data returned: 1.0

Data request: Form field: growth inhibition at least -10%? Entry: Oc1ccc(-c2nc3cnccn3c2Nc2ccc3c(c2)OCCO3)cc1
Data returned: 1.0

====

So I've got a bunch of compounds here, and I need their RAM network inhibition values.
- assay.details: RAM signaling pathway blockade in yeast – S. cerevisiae, Pdr1DBD-CYC8 efflux-inhibited sensitized strain, primary screen (AID 1298);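 note: 0% = DMSO untreated cells without growth and 100% = 10 µM 1-NA-PP1 full growth; higher means more yeast growth rescued from 5-FOA killing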
- test.settings: S. cerevisiae cbk1-as DSE1-URA3 strain, 5-FOA growth OD615, 2 d; at 50 µM; stronger effect = higher value
Active and inactive are the calls of the source.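 Rule for the calls: active = RAM network inhibition above 8.4% in each of two replicates, 3 SD over the compound average; inconclusive = above 8.4% inhibition in only one replicate; inactive = 8.4% inhibition or less in each replicate.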

Data request: Which RAM network inhibition value belongs to O=C1CC(c2nc3ccccc3[nH]2)CN1Cc1ccccc1 (centres undefined) ?
Data returned: 0.96% (inactive)

Data request: Which RAM network inhibition value belongs to COc1ccc(N2CCN(C(=O)Cn3c(=O)[nH]c4ccsc4c3=O)CC2)cc1 ?
Data returned: 3.59% (inactive)

Data request: Which RAM network inhibition value belongs to COc1ccc(N2C(=O)C3CCCN3C2c2ccc(C)cc2)cc1 (centres undefined) ?
Data returned: -1.51% (inactive)

Data request: Which RAM network inhibition value belongs to Cc1ccc(-c2noc(CSc3nnnn3C3CCCCC3)n2)cc1 ?
Data returned: 5.16% (inactive)

Data request: Which RAM network inhibition value belongs to O=C(NCc1cccc(F)c1)c1noc2c1CCCC2 ?
Data returned: 3.14% (inactive)

Data request: Which RAM network inhibition value belongs to COc1ccc(C2C(C#N)=C(N)Oc3n[nH]c(C)c32)cc1Cn1nnc2ccccc21 (centres undefined) ?
Data returned: 7.2% (inactive)

Data request: Which RAM network inhibition value belongs to COc1ccc(C(=O)NCC23C=CC(O2)C2C(=O)N(Cc4ccccc4)C(=O)C23)cc1 (centres undefined) ?
Data returned: 3.67% (inactive)

Data request: Which RAM network inhibition value belongs to CCOc1ccccc1CNC(=O)c1cc2occc2n1C ?
Data returned: 3.98% (inactive)

Data request: Which RAM network inhibition value belongs to COC(=O)c1ccc2c(c1)N(C)CCS2 ?
Data returned: -0.26% (inactive)

Data request: Which RAM network inhibition value belongs to CCCCN(C(=O)NC(=O)Nc1nc2ccc(OC)cc2s1)S(C)(=O)=O ?
Data returned: 1.09% (inactive)

Data request: Which RAM network inhibition value belongs to O=C(CCc1ccccc1)N1CCN(CCO)CC1 ?
Data returned: 3.71% (inactive)

Data request: Which RAM network inhibition value belongs to CCN1CCN(Cc2nc3c(c(=O)n(C)c(=O)n3C)n2C(C)C(C)=O)CC1 (centres undefined) ?
Data returned: 4.46% (inactive)

Data request: Which RAM network inhibition value belongs to CCOC(=O)C1CCN(C(=O)Cc2c(C(=O)O)[nH]c3ccccc23)CC1 ?
Data returned: 3.12% (inactive)

Data request: Which RAM network inhibition value belongs to O=C1c2ccccc2S(=O)(=O)N1CC(O)COc1ccc(Br)cc1 (centres undefined) ?
Data returned: 2.2% (inactive)

Data request: Which RAM network inhibition value belongs to Cc1ccc(-n2c(SCC(N)=O)nc3c([nH]c4ccccc43)c2=O)cc1 ?
Data returned: -0.05% (inactive)

Data request: Which RAM network inhibition value belongs to Cc1ccc(CNC(=O)CCS(=O)(=O)c2cccc3nonc23)cc1 ?
Data returned: 5.43% (inactive)

Data request: Which RAM network inhibition value belongs to COc1ccc(NC(=O)C2CCCN2S(=O)(=O)c2ccc(F)cc2)cc1 (centres undefined) ?
Data returned: -1.32% (inactive)

Data request: Which RAM network inhibition value belongs to c1ccc(-c2noc(CSc3nnnn3-c3ccccc3)n2)cc1 ?
Data returned: 3.86% (inactive)

Data request: Which RAM network inhibition value belongs to CCCCCC(C)n1[nH]c(=O)c2c(C)cc(C)nc21 (centres undefined) ?
Data returned: 0.57% (inactive)

Data request: Which RAM network inhibition value belongs to CCN1C(=S)SC(=O)C1=C1C=C(C)OC(C)=C1 ?
Data returned: 5.1% (inactive)

Data request: Which RAM network inhibition value belongs to COc1ccc(C2CC(C(F)(F)F)n3nc(C(=O)O)c(Cl)c3N2)cc1OC (centres undefined) ?
Data returned: 2.86% (inactive)

Data request: Which RAM network inhibition value belongs to OC(COc1ccc(C2C=CCC2)cc1)CN1CCCCC1 (centres undefined) ?
Data returned: 3.83% (inactive)

Data request: Which RAM network inhibition value belongs to CCOc1ccc(-c2cc(CCCC(=O)NCc3cccnc3)no2)cc1 ?
Data returned: 2.74% (inactive)

Data request: Which RAM network inhibition value belongs to Cc1cc(=O)oc2cc3c(cc12)OCCN3 ?
Data returned: 3.78% (inactive)

Data request: Which RAM network inhibition value belongs to Cc1ccc(C)c2c1sc(=NC(=O)CN1C(=O)CCC1=O)n2C ?
Data returned: 5.96% (inactive)

Data request: Which RAM network inhibition value belongs to Cc1ccc(-c2c(C(=O)N3CCOCC3)oc(=O)c3ccccc23)cc1 ?
Data returned: 1.2% (inactive)

Data request: Which RAM network inhibition value belongs to CCOc1ccccc1N(CC(=O)Nc1ccc2c(c1)OCO2)S(C)(=O)=O ?
Data returned: -0.87% (inactive)

Data request: Which RAM network inhibition value belongs to O=C(COc1ccccc1)Nc1nnc(-c2ccccc2)o1 ?
Data returned: -1.25% (inactive)

Data request: Which RAM network inhibition value belongs to CCOC(=O)N1CCN(C(=O)c2cc3cc(Br)ccc3oc2=O)CC1 ?
Data returned: -1.94% (inactive)

Data request: Which RAM network inhibition value belongs to CC(C)CC(NS(=O)(=O)c1ccc2c(c1)oc(=O)n2C)C(=O)N1CC=C(c2ccccc2)CC1 (centres undefined) ?
Data returned: 6.89% (inactive)

Data request: Which RAM network inhibition value belongs to Cn1c(C(=O)N2CCN(C(=O)c3ccco3)CC2)cc2c(=O)n(C)c3ccccc3c21 ?
Data returned: 2.87% (inactive)

Data request: Which RAM network inhibition value belongs to COc1ccc(-c2nc(CS(=O)(=O)CC(=O)Nc3ccc(Cl)cc3)c(C)o2)cc1 ?
Data returned: 3.02% (inactive)

Data request: Which RAM network inhibition value belongs to COc1cccc(C(=O)NCc2cn3ccsc3n2)c1 ?
Data returned: 3.48% (inactive)

Data request: Which RAM network inhibition value belongs to CCOC(=O)N1CCN(C(=O)CNS(=O)(=O)c2cccs2)CC1 ?
Data returned: 2.76% (inactive)

Data request: Which RAM network inhibition value belongs to COc1ccc(Nc2nnc(Cc3ccccc3)c(=O)[nH]2)c(OC)c1 ?
Data returned: 3.16% (inactive)

Data request: Which RAM network inhibition value belongs to Cc1cc(Nc2ccccc2Br)n2nc(C)nc2n1 ?
Data returned: -1.82% (inactive)

Data request: Which RAM network inhibition value belongs to O=C(Cn1cnc2c(nnn2-c2ccccc2)c1=O)NCCc1ccccc1 ?
Data returned: 3.12% (inactive)

Data request: Which RAM network inhibition value belongs to Cn1c(=O)oc2cc(S(=O)(=O)NCCN3CCc4ccccc4C3)ccc21 ?
Data returned: 0.61% (inactive)

Data request: Which RAM network inhibition value belongs to CCOC(=O)N1CCN(C(=O)c2ccc(CN(c3ccc(C)c(C)c3)S(C)(=O)=O)cc2)CC1 ?
Data returned: 5.73% (inactive)

====

- assay.details: reversal of MRP1-mediated doxorubicin resistance, pilot screen, H69AR cells, doxorubicin co-treatment (AID 601)
- test.settings: H69AR cells + 2 uM doxorubicin, CellTiter-Glo, 72 h; measured here: viability with 2 uM doxorubicin; at 10 µM; stronger effect = lower value
So I've got a bunch of molecules here, and I need their viability values.
Report as a plain number; the unit % is understood.

Data request: Which viability value belongs to CN1CCCN=C1COC(=O)C(O)(c1ccccc1)C1CCCCC1 (stereo not drawn) ?
Data returned: 88.4

Data request: Which viability value belongs to O=C(COC(=O)c1cncc(Br)c1)NCCC1=CCCCC1 ?
Data returned: 88.4

Data request: Which viability value belongs to O=C1c2ccccc2C(=O)N1Cc1nc2ccccc2c(=O)n1CCN1CCOCC1 ?
Data returned: 92.2
